# assay_comment: qHTS for differential inhibitors of proliferation of Plasmodium falciparum line GB4 (AID 1816);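 also: parasite growth measured after 72 h incubation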; also: potency is read from the fitted curve at half-maximal effect
# settings: Plasmodium falciparum GB4 proliferation inhibition; series mostly up to 28.7 µM
Results filed as inconclusive are left out. The source made the active and inactive calls. Calls follow the shape of the dose curve; as a rule, active = well fitted curve in the direction sought with a large enough effect; inconclusive = small, poorly fitted or top-dose-only effect, or another doubt; inactive = no such curve, though single readings can be large or run the other way.
measurement_kind: Potency

[[record]]
compound = "COc1ccc(CCN)cc1O"
measurement_kind = "Potency"
endpoint_result = "inactive"

[[record]]
compound = "COc1ccc(-n2nc(C(F)(F)F)cc2-c2ccc(Cl)cc2)cc1"
measurement_kind = "Potency"
endpoint_result = "11.2 µM (active)"

[[record]]
compound = "CN1CCc2cc(O)cc3c2C1Cc1ccc(O)c(O)c1-3 (configuration not stated)"
measurement_kind = "Potency"
endpoint_result = "8.91 µM (active)"

[[record]]
compound = "N[C@H](CCCCCP(=O)(O)O)C(=O)O"
measurement_kind = "Potency"
endpoint_result = "inactive"

[[record]]
compound = "C=CCN1CCC2(C)c3cc(O)ccc3CC1C2C (configuration not stated)"
measurement_kind = "Potency"
endpoint_result = "12.6 µM (active)"

[[record]]
compound = "COc1cc(CCN)ccc1O"
measurement_kind = "Potency"
endpoint_result = "inactive"

[[record]]
compound = "OC1(c2ccc(Cl)cc2)CCN(Cc2c[nH]c3ccccc23)CC1"
measurement_kind = "Potency"
endpoint_result = "8.91 µM (active)"

